The reported measurements were obtained from patent US9303017B2.

# TGT: α4β4 nAChR (Rattus norvegicus (Rat), UniProt P09483+P12392)
# Sequence (P09483 31-630): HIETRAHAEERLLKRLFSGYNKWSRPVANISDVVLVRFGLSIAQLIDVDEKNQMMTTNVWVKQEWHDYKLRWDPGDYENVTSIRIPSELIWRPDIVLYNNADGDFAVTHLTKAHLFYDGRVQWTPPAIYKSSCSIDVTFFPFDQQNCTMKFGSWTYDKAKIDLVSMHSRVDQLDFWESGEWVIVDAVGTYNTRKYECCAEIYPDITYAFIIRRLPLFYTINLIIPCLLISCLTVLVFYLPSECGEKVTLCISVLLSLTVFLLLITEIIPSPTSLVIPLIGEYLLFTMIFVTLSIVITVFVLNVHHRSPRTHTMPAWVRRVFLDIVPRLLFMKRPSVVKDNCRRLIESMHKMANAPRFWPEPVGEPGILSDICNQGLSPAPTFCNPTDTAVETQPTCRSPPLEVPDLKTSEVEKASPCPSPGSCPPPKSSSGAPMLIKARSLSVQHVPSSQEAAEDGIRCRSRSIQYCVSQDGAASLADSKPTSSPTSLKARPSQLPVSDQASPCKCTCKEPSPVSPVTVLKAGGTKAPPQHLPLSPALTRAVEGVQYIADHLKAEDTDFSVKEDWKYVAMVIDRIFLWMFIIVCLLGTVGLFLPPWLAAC
# Sequence (P12392 21-495): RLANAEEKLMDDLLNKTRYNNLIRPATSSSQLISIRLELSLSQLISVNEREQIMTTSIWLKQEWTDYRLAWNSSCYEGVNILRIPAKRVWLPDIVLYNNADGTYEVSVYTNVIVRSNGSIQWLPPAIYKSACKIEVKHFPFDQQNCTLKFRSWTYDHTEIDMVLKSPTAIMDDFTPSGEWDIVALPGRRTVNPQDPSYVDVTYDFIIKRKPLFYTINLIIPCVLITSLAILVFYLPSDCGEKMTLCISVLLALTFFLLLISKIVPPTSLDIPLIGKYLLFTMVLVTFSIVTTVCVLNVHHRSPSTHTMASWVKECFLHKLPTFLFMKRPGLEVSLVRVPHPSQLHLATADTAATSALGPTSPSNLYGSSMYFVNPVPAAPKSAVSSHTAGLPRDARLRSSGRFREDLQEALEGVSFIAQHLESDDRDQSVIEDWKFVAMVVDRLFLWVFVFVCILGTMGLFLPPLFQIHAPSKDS
# MEASUREMENT_PROTOCOL: [3H]-epibatidine competition binding, α4β4
# CONDITION_DESCRIPTION: Table 1; mean of 3 to 5 measurements
# Procedure: In Vitro Binding Affinities for nAChR Subtypes. […] To determine selectivities of these compounds in binding assays among the three predominant nAChR subtypes, α3β4, α4β2 and α7, the ratios of Ki values (α3β4/α4β2 and α7/α4β2) were determined. […] Briefly, cultured cells at >80% confluence were removed from their flasks (80 cm^2) with a disposable cell scraper and placed in 10 mL of 50 mM Tris.HCl buffer (pH 7.4, 4° C.). […] The filter-retained radioactivity was measured by liquid scintillation counting. […]
Exercise: for every item that follows, state its recorded Ki.
Give bare numbers, in µM.

Report Ki for each item below.
1. Cc1ncc(C#CCCCCF)cc1OC[C@@H]1CCN1 [(S)-22]
2. Cc1ncc(C#CCCCCCl)cc1OC[C@@H]1CCN1 [(S)-21]

1: 3; 2: 3.7
